- testedSystem: T1, soluble KDR extracellular domain (ECD) (Calbiochem) (human, UniProt P35968 20-764)
- T1 construct: extracellular domain; Bought protein; also called KDR-ECD; VEGF Receptor 2 D1-7, Cat. #676490
- T1 sequence (P35968 20-764): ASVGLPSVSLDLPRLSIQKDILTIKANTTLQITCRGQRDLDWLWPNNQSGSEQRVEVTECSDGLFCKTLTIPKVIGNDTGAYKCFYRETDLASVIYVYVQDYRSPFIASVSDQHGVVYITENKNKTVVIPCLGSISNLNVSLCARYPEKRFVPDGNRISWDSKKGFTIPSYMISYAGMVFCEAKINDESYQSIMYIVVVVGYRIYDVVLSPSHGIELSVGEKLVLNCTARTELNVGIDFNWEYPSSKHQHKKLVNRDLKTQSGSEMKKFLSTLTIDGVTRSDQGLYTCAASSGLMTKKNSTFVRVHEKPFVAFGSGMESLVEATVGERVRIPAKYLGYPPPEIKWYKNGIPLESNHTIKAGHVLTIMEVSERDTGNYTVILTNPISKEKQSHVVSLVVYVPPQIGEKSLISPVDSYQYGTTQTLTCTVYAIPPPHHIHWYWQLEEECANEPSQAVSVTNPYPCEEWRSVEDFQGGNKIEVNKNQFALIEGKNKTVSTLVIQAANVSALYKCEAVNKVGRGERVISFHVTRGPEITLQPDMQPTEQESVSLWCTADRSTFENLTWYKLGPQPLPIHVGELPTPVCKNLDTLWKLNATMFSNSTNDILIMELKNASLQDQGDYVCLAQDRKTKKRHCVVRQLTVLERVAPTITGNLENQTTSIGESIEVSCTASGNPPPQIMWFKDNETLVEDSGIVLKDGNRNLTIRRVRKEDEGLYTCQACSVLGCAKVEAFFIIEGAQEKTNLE
- procedureText: High Antigen ELISA, KDR coat 500 ng/mL, supernatant 1:25
Reported ELISA reading is given for each of the following binders.
# respond with the number and nothing more

21A1 (antibody, V domains shown, Fully human mAb from XenoMouse hybridoma, tested as hybridoma supernatant) VH: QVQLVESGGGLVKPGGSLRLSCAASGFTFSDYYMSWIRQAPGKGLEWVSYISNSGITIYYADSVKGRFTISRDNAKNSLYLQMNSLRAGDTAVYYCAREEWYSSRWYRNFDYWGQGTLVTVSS VL: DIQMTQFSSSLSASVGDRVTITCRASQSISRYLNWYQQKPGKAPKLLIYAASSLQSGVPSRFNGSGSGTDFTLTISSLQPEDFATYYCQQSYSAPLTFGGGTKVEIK; 4.45

GET /value?item= 29F7 (antibody, V domains shown, Fully human mAb from XenoMouse hybridoma, tested as hybridoma supernatant) VH: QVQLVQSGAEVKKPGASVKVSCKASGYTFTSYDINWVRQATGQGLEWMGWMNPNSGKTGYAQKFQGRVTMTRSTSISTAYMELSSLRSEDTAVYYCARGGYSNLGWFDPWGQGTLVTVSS VL: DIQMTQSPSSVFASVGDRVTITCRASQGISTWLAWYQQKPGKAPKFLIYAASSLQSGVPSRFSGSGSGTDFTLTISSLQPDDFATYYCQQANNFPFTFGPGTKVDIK &field=ELISA reading returns 4.42

GET /value?item= 27A3 (antibody, V domains shown, Fully human mAb from XenoMouse hybridoma, tested as hybridoma supernatant) VH: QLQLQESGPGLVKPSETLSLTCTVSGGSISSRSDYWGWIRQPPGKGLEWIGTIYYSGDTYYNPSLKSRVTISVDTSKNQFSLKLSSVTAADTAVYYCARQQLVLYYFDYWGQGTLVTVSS VL: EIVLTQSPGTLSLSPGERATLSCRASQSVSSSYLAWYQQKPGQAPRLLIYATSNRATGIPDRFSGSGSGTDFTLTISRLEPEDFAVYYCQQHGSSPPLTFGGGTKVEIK &field=ELISA reading returns 4.79

Numbers sourced from patent US20100260765A1.
